B1: EEHEE_rd4_0647 (parent)
chain: MQVTWGNVTVTFSNPEEAKKYAEKVARKLGGQVELHNGQFRIK

- Variants of: B1
- measurement-protocol: folding stability dG (cDNA display proteolysis); higher = more stable
- test-conditions: PBS, room temperature
measured-endpoint: folding stability dG (kJ/mol)
Numbers only, in kJ/mol.

Study these solved cases before continuing.
> print(dat)
   variant.id  unit.symbol  observed.measurement
1        Q32R       kJ/mol                  12.1
2        K28W       kJ/mol                  13.5
3        K28T       kJ/mol                  10.6
4        V10S       kJ/mol                  5.16
5         T9M       kJ/mol                  8.98

Would you mind giving folding stability dG for every variant in the list below?
1. V3K
2. V25F
3. L35A
4. V8H
5. V25I
6. K20I
7. E23C
8. P15H

Result:
1. 1.69
2. 7.5
3. 8.76
4. 11.7
5. 13
6. 11.6
7. 14.1
8. 12.1

Please state folding stability dG for every variant in the list that follows.
1. K19F
2. R41G
3. K20L
4. A18V
5. M1D
6. Q2P
7. G31M
8. E16D

Result:
12.3
5.45
12
3.06
5.95
6.06
10.6
11.7

Items follow; give folding stability dG for each.
1. V3H
2. Q2S

Result:
1. 1.44
2. 12.7

State recorded folding stability dG for all listed variants.
1. H36D
2. L35M

Result:
[10.6, 11.8]
